Experiment: qHTS assay to identify small molecule agonists of the endoplasmic reticulum stress response signaling pathway - cell viability counter screen (AID 1159517); note: nearly all actives have a fitted effect of over 50% in size
Conditions: ESRE-bla HeLa viability, CellTiter-Glo luminescence, 5 h; series mostly up to 61 µM
Inconclusive results are not listed. Active and inactive are the calls of the source. Calls come from the whole dose curve.
Possible outcomes: true (1) (active), false (0) (inactive)

# molecule, group
measured = [
    ("O=C(N/N=C/c1ccccc1O)c1ccncc1", "false (0)"),
    ("N=C1C=CC(=C(c2ccc(N)cc2)c2ccc(N)cc2)C=C1", "false (0)"),
    ("CC(C)n1nc(-c2cc3cc(O)ccc3[nH]2)c2c(N)ncnc21", "true (1)"),
    ("CCC1=C[C@@H]2CN(C1)Cc1c([nH]c3ccccc13)[C@@](C(=O)OC)(c1cc3c(cc1OC)N(C)[C@H]1[C@@](O)(C(=O)OC)[C@H](OC(C)=O)[C@]4(CC)C=CCN5CC[C@]31[C@@H]54)C2", "false (0)"),
    ("CCc1oc2ccccc2c1C(=O)c1cc(Br)c(O)c(Br)c1", "false (0)"),
    ("CCCCc1oc2ccc(NS(C)(=O)=O)cc2c1C(=O)c1ccc(OCCCN(CCCC)CCCC)cc1", "true (1)"),
    ("CN1CCC(Nc2ncc3ncnc(Nc4ccc(F)c(Cl)c4)c3n2)CC1", "false (0)"),
    ("Cc1cc(O)c2ccccc2c1O", "true (1)"),
    ("CC(C)OC(=O)c1cc2c(OCC(O)CNC(C)(C)C)cccc2[nH]1 (centres undefined)", "false (0)"),
    ("NNC(=O)c1cccc(C(=O)NN)c1", "false (0)"),
    ("O=C(O)c1cc(O)c2c(c1)C(=O)c1cccc(O)c1C2=O", "false (0)"),
    ("CCc1cc(SCc2sc(-c3ccc(C(F)(F)F)cc3)nc2CN2CCN(c3ccc(OC)cc3)CC2)ccc1OCC(=O)O", "true (1)"),
    ("O=C1Cc2cc(CCN3CCN(c4nsc5ccccc45)CC3)c(Cl)cc2N1", "false (0)"),
    ("CCCC(c1cc(C(C)(C)C)c(O)cc1C)c1cc(C(C)(C)C)c(O)cc1C", "true (1)"),
    ("CCCC(C)c1ccccc1O (centres undefined)", "false (0)"),
    ("CC(=O)SC[C@@H](Cc1ccccc1)C(=O)NCC(=O)OCc1ccccc1", "false (0)"),
    ("CCN(C(=O)N(CC)c1ccccc1)c1ccccc1", "false (0)"),
    ("COc1ccc(C(=O)/C(Br)=C\\C(=O)O)cc1", "false (0)"),
    ("O=c1[nH]sc2cc(Cl)ccc12", "false (0)"),
    ("CC(C)(C)C(=O)OCOC(=O)[C@@H]1N2C(=O)[C@@H](NC(=O)[C@H](N)c3ccccc3)[C@H]2SC1(C)C", "false (0)"),
    ("O=[N+]([O-])c1cc([N+](=O)[O-])c2ccc(S(=O)(=O)O)cc2c1O", "false (0)"),
    ("CC(C)(C)c1ccc(C(=O)O)cc1", "false (0)"),
    ("CSc1ccc(C(=O)c2[nH]c(=O)[nH]c2C)cc1", "false (0)"),
    ("NC(=O)NS(=O)(=O)c1ccc(N)cc1", "false (0)"),
    ("CCOC(=O)O[C@H](C)OC(=O)c1ccc2c(c1)cc(C(=O)NC1CCN(C(C)C)CC1)n2Cc1cc(-c2ccc(Cl)s2)on1", "true (1)"),
    ("Cc1cc(=O)oc2cc(N(C)C)ccc12", "false (0)"),
    ("CCCN(CCC)c1c([N+](=O)[O-])cc(C(F)(F)F)c(N)c1[N+](=O)[O-]", "true (1)"),
    ("C[C@H]1[C@H]2CC[C@H]3[C@@H]4CC=C5C[C@@H](N(C)C)CC[C@]5(C)[C@H]4CC[C@]23CN1C", "false (0)"),
    ("CCCCCCCCCOC(=O)c1ccc(O)cc1", "true (1)"),
]

====

Assay: A CellTox Green Cytotoxicity Assay to monitor cytotoxicity in HEK293 cells - 24 hour (AID 1224875); note: nearly all actives have a fitted effect of over 45% in size
Details: CellTox Green fluorescence; series mostly up to 76.8 µM
Records with an inconclusive call do not appear. The source made the active and inactive calls. Calls follow the shape of the dose curve; as a rule, active = well fitted activation curve with a large enough effect in the repeat runs; inconclusive = weak or mixed curves; inactive = flat fitted curve, though single readings scatter.
Possible outcomes: active, inactive

# compound, group
rows = [
    ("CC(C)(C)C(=O)OCOC(=O)C1N2C(=O)CC2S(=O)(=O)C1(C)C (stereo not drawn)", "inactive"),
    ("CCc1oc2ccccc2c1C(=O)c1cc(Br)c(O)c(Br)c1", "inactive"),
    ("CC/C(=C(\\c1ccc(O)cc1)c1ccc(OCCN(C)C)cc1)c1ccccc1", "active"),
    ("CS(=O)(=O)CCNCc1ccc(-c2ccc3ncnc(Nc4ccc(OCc5cccc(F)c5)c(Cl)c4)c3c2)o1", "inactive"),
    ("CCCCCCCCCCCCCCCCCC[N+](C)(C)Cc1ccccc1", "active"),
    ("O=c1[nH]cnc2nc[nH]c12", "inactive"),
    ("Cc1cc(C2CCCCC2)n(O)c(=O)c1", "inactive"),
    ("NC(=O)N1C(=O)C(C(=O)c2cc(Cl)cs2)c2cc(F)c(Cl)cc21 (stereo not drawn)", "inactive"),
    ("CN(C)[C@@H]1C(=O)C(C(N)=O)=C(O)[C@@]2(O)C(=O)C3=C(O)c4c(O)cccc4C[C@H]3C[C@@H]12", "inactive"),
    ("O=C(NO)C1(NS(=O)(=O)c2ccc(Oc3ccc(F)cc3)cc2)CCOCC1", "inactive"),
    ("NC(=O)NS(=O)(=O)c1ccc(N)cc1", "inactive"),
    ("CCCCCCCCCCCCCCCCCC[N+](C)(C)C", "active"),
    ("[Cl][Bi]([Cl])([c]1ccccc1)([c]1ccccc1)[c]1ccccc1", "active"),
    ("C[C@@H](NCCCc1cccc(C(F)(F)F)c1)c1cccc2ccccc12", "active"),
    ("CCCCC(CC)COP(=O)(O)OCC(CC)CCCC (stereo not drawn)", "active"),
    ("CC(C)C(C)(C)C(C)(C)C(C)(C)S", "inactive"),
    ("Cc1cc(O)c(C(C)(C)C)cc1C(C)(C)C", "active"),
    ("O=C(N/N=C/c1ccccc1O)c1ccncc1", "inactive"),
    ("[Cl][Au]([Cl])[Cl]", "active"),
    ("CC(C)c1ccc2c(c1)CC[C@H]1[C@](C)(CN)CCC[C@]21C", "active"),
    ("Nc1ccc2cc(S(=O)(=O)O)cc(O)c2c1N=Nc1ccccc1C(F)(F)F", "inactive"),
    ("CCCC1O[C@@H]2C[C@H]3[C@@H]4CCC5=CC(=O)C=C[C@]5(C)[C@H]4[C@@H](O)C[C@]3(C)[C@]2(C(=O)CO)O1 (stereo partly drawn)", "inactive"),
    ("NNc1nc(-c2ccc([N+](=O)[O-])cc2)cs1", "inactive"),
    ("[O-][n+]1ccccc1SSc1cccc[n+]1[O-]", "active"),
    ("C[C@H](CCC(=O)O)[C@H]1CC[C@H]2[C@@H]3CC[C@@H]4C[C@H](O)CC[C@]4(C)[C@H]3CC[C@]12C", "inactive"),
    ("Fc1ccc([C@@H]2CCNC[C@H]2COc2ccc3c(c2)OCO3)cc1", "inactive"),
    ("CCCCCCC[N+](CC)(CC)CCCCc1ccc(Cl)cc1", "inactive"),
    ("N#CC1(c2ccc(F)cc2)CCC(=O)CC1", "inactive"),
    ("Clc1ccc2cc3ccccc3cc2c1", "inactive"),
    ("CC1=NC(C)OC1C (stereo not drawn)", "inactive"),
    ("CC(C)(C)C(=O)OCOC(=O)[C@@H]1N2C(=O)[C@@H](NC(=O)[C@H](N)c3ccccc3)[C@H]2SC1(C)C", "inactive"),
    ("CCN(Cc1cccnc1)C(=O)c1cccc(Cl)c1[C@]1(C)C(=O)N(Cc2ccc(OC)cc2OC)c2ccc(Cl)cc21", "inactive"),
    ("C1CCCC1", "inactive"),
]

====

Assay: A CellTox Green Cytotoxicity Assay to monitor cytotoxicity in HEK293 cells - 16 hour (AID 1224888); note: nearly all actives have a fitted effect of over 35% in size
Settings: CellTox Green fluorescence; series mostly up to 76.8 µM
Source text: National Center for Advancing Translational Sciences [NCATS] NIH Chemical Genomics Center [NCGC] U.S. Environmental Protection Agency [EPA] National Institutes of Environmental Health Sciences [NIEHS] National Toxicology Program [NTP] Cell-based models are critical for drug discovery. […] Viable cells produce no appreciable increases in fluorescence. Therefore, the fluorescence signal produced by the binding interaction with dead cell DNA is proportional to cytotoxicity. […]
Inconclusive results are not listed. Active and inactive are the calls of the source. Calls follow the shape of the dose curve; as a rule, active = well fitted activation curve with a large enough effect in the repeat runs; inconclusive = weak or mixed curves; inactive = flat fitted curve, though single readings scatter.
observationType: outcome

# compound, reported
rows = [
    ("COC(=O)C1=C(C)NC(C)=C(C(=O)OCC(C)C)C1c1ccccc1[N+](=O)[O-] (centres undefined)", "inactive"),
    ("Clc1ccc2cc3ccccc3cc2c1", "inactive"),
    ("Cc1ccc2oc(CN(Cc3ccccc3)C(=O)Nc3c(F)cc(F)cc3F)c(-c3ccc(Cl)cc3)c2c1", "inactive"),
    ("NNc1nc(-c2ccc(N)cc2)cs1", "inactive"),
    ("Nc1ccc(N)c2ccccc12", "inactive"),
    ("Cn1cc(C(=O)[C@@H]2CCc3nc[nH]c3C2)c2ccccc21", "inactive"),
    ("Cc1c(C)c2c(c(C)c1OC(=O)CCC(=O)O)CC[C@@](C)(CCC[C@H](C)CCC[C@H](C)CCCC(C)C)O2", "inactive"),
    ("COC(=O)C1=C(C)NC(C)=C(C(=O)OCCc2ccc(N3CCN(C(c4ccccc4)c4ccccc4)CC3)cc2)C1c1cccc([N+](=O)[O-])c1 (centres undefined)", "inactive"),
    ("N=C1N=C(N)c2ccccc21", "inactive"),
]
